All figures here come from PubChem BioAssay (NCI).

Test system: A498 renal
procedure_text: NCI-60 one-dose screen, 48 h
condition_description: 10 µM unless noted
Compounds without any hit were thinned out: in the full panel of roughly 83,000, 20% have a hit. Calls of active or inactive are those of the source. The calls were made as follows: active = growth percent below 10; inactive = the rest.
Respond only with the outcome that fits, drawn from active, inactive

Solved entries:
COc1c2ccccc2c(OC)c2[nH]c(=O)ccc12
inactive
Cc1nn(-c2nc3ccccc3[nH]2)c2c1C(c1ccc3c(c1)OCO3)CC(=O)N2 (stereo not given)
active
C=CC[N+]1(CC)CCN=C1CCCCCCCCCCCCCCCCC (stereo not given)
active
O=C(Nc1ccc(Nc2cc(Nc3ccccc3)ncn2)cc1)Nc1cc(C(F)(F)F)ccc1F
inactive

Ask | Dear colleague, could you share the recorded outcome for `Nc1ccc(Nc2nccc(-c3ccc4ccccc4c3)n2)cc1` when you have a moment?
Reply | inactive

* * *

# reported growth; entries follow
Test system: NCI-H226 lung
procedure_text: NCI-60 one-dose screen, 48 h (100 = growth as untreated, 0 = no growth, -100 = all killed)
condition_description: 10 µM unless noted
The panel holds about 83,000 compounds, 20% with a hit somewhere; the sample as a whole holds those more often. The source made the active and inactive calls. How the source made its calls: active means growth percent below 10; inactive means the rest.

COc1ccc(C(=O)COc2ccc(/C=C3\Oc4ccc(Cl)cc4C3=O)cc2)cc1
92% (inactive)
CCOC(=O)c1c2ncccc2n2c(=O)n(-c3ccc(Cl)cc3)nnc12
104% (inactive)
CC(C)(C)n1cc(-c2ccnc(NCCCNS(=O)(=O)c3cccc4ccccc34)c2)c(-c2cccc(O)c2)n1
41% (inactive)
O=C1Nc2ccccc2/C1=C/C(=N/c1nnc(-c2ccccc2)s1)c1ccccc1
86.5% (inactive)
NC1=CSC2=N/C(=C\c3ccc(Cl)cc3)C(=O)N12
80.3% (inactive)
CC(=O)OCC1OC(OC2=C(CC=C(Cl)Cl)C(=O)c3ccccc3C2=O)C(OC(C)=O)C(OC(C)=O)C1OC(C)=O (configuration not stated)
85% (inactive)

Could you now consider this next molecule?
Ask | What value of growth has been recorded for this entry: CCN(CC)CCCC(C)NCCCNc1cccc2cccnc12 (configuration not stated)
Reply | 93.5% (inactive)

* * *

Test system: SK-OV-3 ovarian
procedure_text: NCI-60 one-dose screen, 48 h
condition_description: 10 µM unless noted
This is part of a sample that, as a whole, favours compounds with a hit. Of some 83,000 tested, about 20% had one in any assay. Calls of active or inactive are those of the source. The calls were made as follows: active = growth percent below 10; inactive = the rest.
Respond only with the outcome that fits, drawn from active, inactive

Solved entries:
Cc1nc2nc(N)nc(N)c2nc1C
inactive
COc1cc2c(=O)n(CC3CCCCC3)c3c4cc[nH]c4ncc3c2cc1OC
inactive
CCN(CC)c1ccc(/C=C/C2=[N+](C)c3ccccc3C2(C)C)cc1
active
N#CC1=C(N)Oc2c(ccc3ccccc23)C1c1cccs1 (stereo unspecified)
active
CC(C)c1c(C(=O)Nc2ccccc2)c(-c2ccccc2)c(-c2ccc(F)cc2)n1CC[C@@H]1CC=CC(=O)O1
inactive
CN(C)CC(=O)Nc1ccc(Cn2nnc3c2C(=O)c2nnn(Cc4ccc(NC(=O)CN(C)C)cc4)c2C3=O)cc1
active
CCOC(=O)/C=C/c1ccc(C(=O)OCC)[nH]1
inactive
Nc1cc(O)cc2cccnc12
inactive

Ask | Dear colleague, could you share the recorded outcome for `CN1/C(=C\C=C\C2=[N+](C)c3ccccc3C2(C)C)C(C)(C)c2ccccc21` when you have a moment?
Reply | active

Ask | Dear colleague, could you share the recorded outcome for `C=C1C(=O)O[C@H]2[C@H]1CC/C(Cn1cc(Cn3ccc4ccccc43)nn1)=C\CC[C@@]1(C)O[C@@H]21` when you have a moment?
Reply | inactive

Ask | Dear colleague, could you share the recorded outcome for C=C1CCC2C3(C)COC(c4ccccc4Br)OC3CCC2(C)C1C/C=C1/C(=O)OCC1OC(C)=O (stereo unspecified) when you have a moment?
Reply | inactive

* * *

Tested on: HOP-62 NSCLC
procedure_text: NCI-60 one-dose screen, 48 h
condition_description: 10 µM unless noted
Compounds without any hit were thinned out: in the full panel of roughly 83,000, 20% have a hit. Calls of active or inactive are those of the source. How the source made its calls: active means growth percent below 10; inactive means the rest.
Respond only with the outcome that fits, drawn from True = active, False = inactive

CC(C)n1cc2c(N)ncnc2n1
False
CCN(CC)CCCC(C)NCCCNc1cccc2cccnc12 (stereo not given)
False
COc1ccc(-c2cc(-c3ccc(N(C)C)cc3)nc(NC(=O)c3ccncc3)n2)cc1
False
COc1cccc(-c2nc3sccn3c2-c2ccnc(NCCCNS(=O)(=O)c3ccc(Cl)cc3)c2)c1
False
COc1c2ccccc2c(OC)c2[nH]c(=O)ccc12
True

# input for lookup
Ask | Dear colleague, could you share the recorded outcome for `O=C1c2ccccc2-c2nccc3cc(Cl)nc1c23` when you have a moment?
Reply | False

* * *

Test system: MALME-3M melanoma
procedure_text: NCI-60 one-dose screen, 48 h (100 = growth as untreated, 0 = no growth, -100 = all killed)
condition_description: 10 µM unless noted
This is part of a sample that, as a whole, favours compounds with a hit. Of some 83,000 tested, about 20% had one in any assay. Activity calls are given as the source filed them. How the source made its calls: active means growth percent below 10; inactive means the rest.
recorded_endpoint: growth

Example results:
CCN(CC)c1ccc(CNc2cc(C)nc3ccc(OC)cc23)cc1
-77.5% (active)
C=C1C(=O)O[C@H]2[C@H]1CC/C(Cn1cc(Cc3c[nH]c4ccccc34)nn1)=C\CC[C@@]1(C)O[C@@H]21
-40.6% (active)
Cc1ccc2cnc(N)c(C#Cc3cncc(C(=O)Nc4ccc(CN5CCN(C)CC5)c(C(F)(F)F)c4)c3)c2c1
-83.4% (active)
Nc1c(C(=O)Nc2ccccc2)sc2nc3c(cc12)CN(CCc1ccccc1)CC3
95.7% (inactive)
Oc1c(Cl)cc(Cl)cc1CNc1nccnn1
93.9% (inactive)

Ask | Could you share what growth was measured for `CC(=O)C1=C(O)C=C2Oc3c(C(=O)/C=C/c4c(Cl)cccc4Cl)c(O)c(C)c(O)c3[C@]2(C)C1=O` , tested on MALME-3M melanoma?
Reply | -67.7% (active)

Ask | Could you share what growth was measured for `CCCCCCCCCCCCCCCCCCSC1=CC(=O)C(OC)=C(OC)C1=O` , tested on MALME-3M melanoma?
Reply | 112% (inactive)

Ask | Could you share what growth was measured for `CCCCCCCCCCNC(=O)CCl` , tested on MALME-3M melanoma?
Reply | 87.9% (inactive)

Ask | Could you share what growth was measured for `COc1ccccc1-c1ccc2c(N)c(C(=O)c3ccc4c(c3)OCO4)sc2n1` , tested on MALME-3M melanoma?
Reply | 48.2% (inactive)

Ask | Could you share what growth was measured for C=C1CC[C@@H]2[C@](C)(COC(C)=O)[C@H](OC(C)=O)CC[C@@]2(C)[C@@H]1CC(Nc1ccc(S(=O)(=O)Nc2ccc(Cl)nn2)cc1)C1=CCOC1=O (stereo partly specified) , tested on MALME-3M melanoma?
Reply | 55.3% (inactive)

Ask | Could you share what growth was measured for O=C(O)C(O)C(O)C(=O)O.[NH-]C1CCCCC1[NH-].[Pt+2] (stereo unspecified) , tested on MALME-3M melanoma?
Reply | 127% (inactive)

* * *

Tested on: TK-10 renal
procedure_text: NCI-60 one-dose screen, 48 h (100 = growth as untreated, 0 = no growth, -100 = all killed)
condition_description: 10 µM unless noted
About 83,000 compounds went through this panel and 20% of them were active in at least one assay; those are over-represented in the sample as a whole.
# reported growth; entries follow
Report as a plain number; the unit % is understood.

Example results:
Cc1nn(-c2ccccc2)c2nc(C)n(-c3ccc(Br)cc3)c(=O)c12
53.1
O=C(/C=C/c1cccc(Br)c1)c1ccccc1
69.7

Ask | Could you share what growth was measured for `COc1ccc(CCN2CCCn3c2nc2ccccc2c3=O)cc1` , tested on TK-10 renal?
Reply | 69.3

* * *

System: NCI-H522 lung
procedure_text: NCI-60 one-dose screen, 48 h
condition_description: 10 µM unless noted
About 83,000 compounds went through this panel and 20% of them were active in at least one assay; those are over-represented in the sample as a whole. The source made the active and inactive calls. Rule for the calls: active = growth percent below 10; inactive = the rest.
Respond only with the outcome that fits, drawn from 1 = active, 0 = inactive

Solved entries:
Cc1nc2nc(N)nc(N)c2nc1C
0
CCN(CC)CC(C)Nc1ccc([N+](=O)[O-])c2sc3ccccc3c(=O)c12 (stereo unspecified)
1
CN(C)CCCC(=O)Nc1ccc(Cn2nnc3c2C(=O)c2nnn(Cc4ccc(NC(=O)CCCN(C)C)cc4)c2C3=O)cc1
0

Ask | Dear colleague, could you share the recorded outcome for COc1cc(C2CC(=O)c3c(C)nn(-c4nc5ccccc5[nH]4)c3C2)cc(OC)c1OC (stereo unspecified) when you have a moment?
Reply | 0

Ask | Dear colleague, could you share the recorded outcome for `NS(=O)(=O)N(c1cc(C(F)(F)F)cc(C(F)(F)F)c1)C1CCN(Cc2ccc(F)cc2)CC1` when you have a moment?
Reply | 0

Ask | Dear colleague, could you share the recorded outcome for CCN(CC)CC(O)CNc1c2ccc([N+](=O)[O-])cc2nc2cc(OC)c(OC)cc12 (stereo unspecified) when you have a moment?
Reply | 1

Ask | Dear colleague, could you share the recorded outcome for C=C1CCC2C3(C)COC(c4ccccc4Br)OC3CCC2(C)C1C/C=C1/C(=O)OCC1OC(C)=O (stereo unspecified) when you have a moment?
Reply | 1

Ask | Dear colleague, could you share the recorded outcome for C=C1CC[C@@H]2[C@](C)(COC(C)=O)[C@H](OC(C)=O)CC[C@@]2(C)[C@@H]1CC(Nc1ccc(S(=O)(=O)Nc2ccc(Cl)nn2)cc1)C1=CCOC1=O (stereo partly specified) when you have a moment?
Reply | 1
